Where do the numbers come from? From patent US20240301319A1.

Reported values of Odor Threshold for individual entries
# Test name: Odor threshold and odor value of perfuming compounds (Tables 4 to 10)
# Setup conditions: Table 10, woody note

Compound	Odor Threshold
CCOC(C)OC1CCCCCCCCCCC1 (racemic) [(+−)-(1-ethoxyethoxy)cyclododecane]	2.51E−02 μg/l air

Ask | Give its Odor Threshold value. Item: CC(=O)O[C@@H]1C(C)(C)CCC[C@]12CC=C(C)C[C@H]2C (racemic)
Reply | 3.79E−03 μg/l air

Ask | Same question, CCC(C)C1(C)COC(C2CCC(C)=CC2C)OC1 (centres unmarked) this time
Reply | 1.67E−03 μg/l air

Ask | Ok, now "COC(OC)C(C)(C)CC=C(C)C"
Reply | 1.26E−02 μg/l air

Ask | Also "C[C@H]1[C@@H]2C[C@H](C[C@@]13C=CC(=O)CC3)C2(C)C" ?
Reply | 6.32E−04 μg/l air

Ask | Another compound: CCOCOC1CCCCCCCCCCC1 [(ETHOXYMETHOXY)CYCLODODECANE]
Reply | 8.90E−02 μg/l air

Ask | Try the compound CCC(=CCC1CC=C(C)C1(C)C)CO (racemic)
Reply | 7.80E−05 μg/l air

* * *

Measured Odor Value by item
# Test name: Odor threshold and odor value of perfuming compounds (Tables 4 to 10)
# Setup conditions: Table 8, perfuming compounds having a sweet note
Could you respond with only the numeric value?

Compound	Odor Value
CC(=O)C(C)O (racemic) [(+−)-3-HYDROXY-2-BUTANONE]	2.28E+06
CCCCCC1CCCC1O (racemic) [(+−)-2-PENTYL-1-CYCLOPENTANOL]	1.80E+04
CC(C)C(=O)OCCc1ccccc1 [2-PHENYLETHYL ISOBUTYRATE]	1.01E+04
CC(C)Cc1ccc2ccccc2n1	4.53E+04
COc1cc(C=O)ccc1O [4-hydroxy-3-methoxybenzaldehyde]	6.28E+05

Ask | I am curious: what Odor Value value has been reported for C=CCSSCC=C [DIALLYL DISULFIDE] ?
Reply | 1.38E+08

Ask | Repeat for the following compound: CC1=C(O)C(=O)CC1 [2-HYDROXY-3-METHYL-2-CYCLOPENTEN-1-ONE]
Reply | 1.04E+06

Ask | Now try CCCCCCC1CCC(=O)O1 (racemic) [(+−)-4-DECANOLIDE] .
Reply | 6.51E+04

Ask | Further, for CCCCC[C@@H]1OC(=O)C[C@H]1C (racemic) [(+−)-TRANS-3-METHYL-4-NONANOLIDE] ?
Reply | 2.53E+04

Ask | What do we get for "CC(=O)CCC1=C(C)CCCC1(C)C" ?
Reply | 7.48E+03

* * *

# Test name: Volatility of perfuming compounds (Tables 4 to 10), with top/middle/bottom note type
# Format: physicochemical
# Setup conditions: Table 7, citrus note; top, middle or bottom note
Measurement label: Type

Study these solved cases before continuing.
Compound	Measurement label	Value observed
CC1=CCC(C(C)C)=CC1	Type	Top
CC(OC=O)C1CCCC(C)(C)C1 (centres unmarked)	Type	Top
C=CC(C)(O)CCC=C(C)C (racemic) [(+−)-3,7-dimethyl-1,6-octadien-3-ol]	Type	Top
CC(C)CCCC(C)CCO (racemic)	Type	Middle

Ask | Report Type for CCCC1CCCC(=O)O1 (racemic) [(+−)-6-propyltetrahydro-2H-pyran-2-one] please.
Reply | Middle

Ask | Again, but for C=CC(C)CC(=O)CC(C)C (racemic)
Reply | Top

Ask | Okay, and "CC(C)=CCCC(C)=CCO" ?
Reply | Middle
